- test_summary: qHTS Assay for inhibitors of the human cytomegalovirus (HCMV); further: on the % scale 0 is the no-effect control and ±100 the full control effect
- condition_notes: HFF cells, HCMV-luciferase reporter, 72 h; at 57.5 µM
In all, about 410,000 compounds went through this assay and about 18,000 (4.4%) were called active. Roughly 7% stayed inconclusive and do not appear here. No stated cut-off is given here; in the data, active means activity change below about -60%; inconclusive means no clear call, values can overlap the other calls; inactive means above about -39%. What follows is part of a selection rich in actives, with near analogues and random picks from the rest.
Output constraint: value belongs to 1 (active), 0 (inactive)

Example entries and their recorded answers appear below.
{"compound": "Cc1ccccc1C(=O)Nc1sc2c(c1C(=O)N1CCC(C)CC1)CCCC2", "assigned_label": 0}
{"compound": "O=C(NCc1ccc2c(c1)CCN2C(=O)c1ccccc1)c1ccccc1", "assigned_label": 0}
{"compound": "CCNS(=O)(=O)c1ccc(NC(=O)CSc2nc(-c3ccco3)cc(C(F)(F)F)n2)cc1", "assigned_label": 0}

*Q* For this compound, state the assay outcome: CC(C)OP(=O)(OC(C)C)C(Nc1ccccc1)c1cccc([N+](=O)[O-])c1 (configuration not stated)
*A* 0

*Q* For this compound, state the assay outcome: CCc1ccc(NC(=O)C(C)OC(=O)/C=C/c2cccc([N+](=O)[O-])c2)cc1 (configuration not stated)
*A* 0

*Q* For this compound, state the assay outcome: CCOc1ccc(C(=O)c2cn(Cc3ccccc3OC)c3ccc(F)cc3c2=O)cc1
*A* 0

*Q* For this compound, state the assay outcome: COC(=O)/C=C\C(=O)Nc1cccc([N+](=O)[O-])c1
*A* 1

====

- test_summary: qHTS Assay for inhibitors of the human cytomegalovirus (HCMV); further: on the % scale 0 is the no-effect control and ±100 the full control effect
- condition_notes: HFF cells, HCMV-luciferase reporter, 72 h; at 57.5 µM; active compounds read low
About 18,000 (4.4%) of roughly 410,000 compounds were called active. Roughly 7% stayed inconclusive and do not appear here. The full list was thinned out, with actives kept by preference.
measured_parameter: activity change, negative = inhibition (%)
Please respond with the number in % and leave the unit unwritten.

{"compound": "COc1ccc(S(=O)(=O)N2CCN(CC(=O)N3CCOCC3)CC2)cc1OC", "unit_annotation": "%", "activity change, negative = inhibition": 4.11}
{"compound": "CCc1ccccc1NC(=O)CN(C)C(=O)COc1ccc(C)nc1[N+](=O)[O-]", "unit_annotation": "%", "activity change, negative = inhibition": -24.2}
{"compound": "CCOc1ccc(C(=O)/C=C/c2cn(CC(O)CN3CCCCCC3)c3ccccc23)cc1 (stereo not given)", "unit_annotation": "%", "activity change, negative = inhibition": -29}
{"compound": "O=C(CCNc1n[nH]c(=O)[nH]c1=O)N/N=C\\c1ccc(Br)cc1", "unit_annotation": "%", "activity change, negative = inhibition": 0}
{"compound": "O=c1cc(CSc2ncn[nH]2)[nH]c2ccc(F)cc12", "unit_annotation": "%", "activity change, negative = inhibition": 10.7}
{"compound": "O=C(CCC(=O)N/N=C/c1ccc(Br)o1)N/N=C/c1ccc(Br)o1", "unit_annotation": "%", "activity change, negative = inhibition": -61.8}

*Q* Requested read-out: activity change, negative = inhibition. Entry: Oc1ccccc1-c1nc(/C=C/c2ccc(F)cc2)no1
*A* 94.7

*Q* Requested read-out: activity change, negative = inhibition. Entry: CC(C)[C@@H](NC(=O)OC(C)(C)C)C(=O)NCC1CCC(C(=O)N[C@@H](Cc2ccccc2)C(=O)O)CC1 (stereo not given in full)
*A* -17.7

*Q* Requested read-out: activity change, negative = inhibition. Entry: CCc1ccc2oc(-c3ccc(C)c(NC(=O)/C=C/c4ccco4)c3)nc2c1
*A* 34.4

*Q* Requested read-out: activity change, negative = inhibition. Entry: Cc1oc2ncnc(N3CCCCC3)c2c1C(=O)N1CCN(c2cccc(Cl)c2)CC1
*A* 2.67

*Q* Requested read-out: activity change, negative = inhibition. Entry: O=C(CCNC(=O)c1ccccc1)NN=Cc1ccc(Br)o1
*A* -13.4

*Q* Requested read-out: activity change, negative = inhibition. Entry: CC(=O)N1CCc2cc(S(=O)(=O)NC(Cc3ccccc3)C(=O)NCc3ccc(C)cc3)ccc21 (stereo not given)
*A* -12.2

*Q* Requested read-out: activity change, negative = inhibition. Entry: Cc1ccc(C(=O)N/N=C\c2cc(Br)c(Br)o2)cn1
*A* -32.6

*Q* Requested read-out: activity change, negative = inhibition. Entry: C/C(=N\NC(=O)c1cccnc1)c1ccc(-n2ccnc2)cc1
*A* -16.6

*Q* Requested read-out: activity change, negative = inhibition. Entry: CCN(CC)S(=O)(=O)c1ccc2c(c1)N(CC(=O)NCc1ccccc1)C(=O)CS2
*A* -9.16

*Q* Requested read-out: activity change, negative = inhibition. Entry: Cc1cccc(-n2c(=O)c3c(c4cc(C)ccc4n3C)n(CC(=O)Nc3ccccc3Cl)c2=O)c1
*A* -1.31

*Q* Requested read-out: activity change, negative = inhibition. Entry: COC(=O)c1ccccc1NC(=O)c1cncc(Br)c1
*A* -30.4

*Q* Requested read-out: activity change, negative = inhibition. Entry: CCOc1ccc(N(C)S(=O)(=O)c2cc(-c3cnc(C)o3)ccc2OC)cc1
*A* -20.5

*Q* Requested read-out: activity change, negative = inhibition. Entry: COc1ccc(C)cc1-n1nnnc1SCC(=O)c1cc(C)n(Cc2ccco2)c1C
*A* 39.6

*Q* Requested read-out: activity change, negative = inhibition. Entry: CC(C)N1CCc2c(sc(NC(=O)Cc3ccccc3)c2C#N)C1
*A* -9.26

*Q* Requested read-out: activity change, negative = inhibition. Entry: CCOc1ccccc1N(C)C(=O)c1cc2c(s1)-c1ccccc1OC2
*A* 2.75

*Q* Requested read-out: activity change, negative = inhibition. Entry: CCOc1ccc(CNC(=O)c2cc(=O)[nH]c3ccc(S(=O)(=O)N4CCCCC4)cc23)cc1
*A* 66.7

*Q* Requested read-out: activity change, negative = inhibition. Entry: CC1CCc2sc(C(=O)N/N=C/C3CCCCC3)cc2C1 (stereo not given)
*A* 13.4

*Q* Requested read-out: activity change, negative = inhibition. Entry: Cc1ccc(C(=O)Nc2nc(N)n(-c3ccccc3)n2)cc1
*A* 68.4

*Q* Requested read-out: activity change, negative = inhibition. Entry: Cc1ccc(C)c(N2CCN(C(=O)Cn3ncc4c(=O)oc5ccc(C)cc5c43)CC2)c1
*A* 4.14

====

Reported activity change, negative = inhibition values follow for various compounds
- test_summary: qHTS Assay for inhibitors of the human cytomegalovirus (HCMV); further: on the % scale 0 is the no-effect control and ±100 the full control effect
- condition_notes: HFF cells, HCMV-luciferase reporter, 72 h; at 57.5 µM; active compounds read low
The campaign covered roughly 410,000 compounds. About 18,000 (4.4%) were called active. Inconclusive results (about 7%) are left out. Many of the other results were omitted from the sample, so actives are more common in it than they were.

*Q* Requested read-out: activity change, negative = inhibition. Entry: Cc1ccc(NC(=O)CN2C(=O)CC(C)Sc3ccccc32)c(C)c1 (centres undefined)
*A* -2.3% (inactive)

====

- test_summary: qHTS Assay for inhibitors of the human cytomegalovirus (HCMV); further: on the % scale 0 is the no-effect control and ±100 the full control effect
- condition_notes: HFF cells, HCMV-luciferase reporter, 72 h; at 57.5 µM; active compounds read low
The campaign covered roughly 410,000 compounds. About 18,000 (4.4%) were called active. Not shown: some 7% with an inconclusive outcome. The sample as a whole holds a higher share of actives than the screen did.
Reported activity change, negative = inhibition values follow for various compounds
Please respond with the number in % and leave the unit unwritten.

See these solved cases before continuing.
{"compound": "O=C(NNS(=O)(=O)c1ccccc1)c1cnn(-c2ccc(Cl)cc2)c1C(F)(F)F", "activity change, negative = inhibition (%)": 2.04}
{"compound": "Cc1coc2cc3oc(=O)c(CCC(=O)O)c(C)c3cc12", "activity change, negative = inhibition (%)": -38.4}
{"compound": "COc1ccccc1-c1noc(CSc2nnc(-c3ccccc3)n2-c2ccc(C)c(C)c2)n1", "activity change, negative = inhibition (%)": 4.88}
{"compound": "CCN1CCN(C(c2ccc(C)cc2)c2c(O)cc(C)n(Cc3ccco3)c2=O)CC1 (stereo not drawn)", "activity change, negative = inhibition (%)": 25}
{"compound": "COc1c(Cl)cc(Cl)cc1C(=O)Nc1cccc2cccnc12", "activity change, negative = inhibition (%)": 33.4}
{"compound": "O=C(COC(=O)c1ccccc1C(=O)N1CCN(c2ccccc2)CC1)NCc1ccccc1", "activity change, negative = inhibition (%)": -62.6}
{"compound": "Nc1ccc(-c2sc(N)nc2-c2ccccc2)cc1", "activity change, negative = inhibition (%)": -103}
{"compound": "Cc1nc(N)sc1-c1ccccc1", "activity change, negative = inhibition (%)": -23.6}

*Q* Requested read-out: activity change, negative = inhibition. Entry: Cc1cc(Cl)ccc1NC(=O)Cc1ccc(NC(=O)N2CCCCc3ccccc32)cc1
*A* 25.1

*Q* Requested read-out: activity change, negative = inhibition. Entry: COc1ccc(CCn2c(O)c(C=NC3CC3)c(=O)[nH]c2=O)cc1OC
*A* -4.78

*Q* Requested read-out: activity change, negative = inhibition. Entry: CCCc1nn2c(=O)cc(CSCC(=O)Nc3cccc(C)c3)nc2s1
*A* 2.89

*Q* Requested read-out: activity change, negative = inhibition. Entry: O=C(CN1CCN(S(=O)(=O)/C=C/c2ccccc2)CC1)NC(=O)NCc1ccco1
*A* 61.6

*Q* Requested read-out: activity change, negative = inhibition. Entry: Cc1ccc(S(=O)(=O)Nc2ccccc2CNc2c(C)n(C)n(-c3ccccc3)c2=O)cc1
*A* -7.12
